Could you please report measured self-cleavage for the items listed next?
B1: CPEB3 Ribozyme (parent)
chain: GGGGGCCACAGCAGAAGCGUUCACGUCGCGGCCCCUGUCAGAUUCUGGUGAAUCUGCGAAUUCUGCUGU

variants of: B1; assay: self-cleavage, relative activity (ratio to wild type); higher = more cleavage; co-transcriptional

Recorded results for 6 variants are shown here.
GGGGGCCACAGCAGAAGCGUCCACGUCGCGGCCCCUGUCAGAUUCUGGGGAAUCUGCGAAUUCUGCUGU [U21C U49G]: 0.927
GGGGGCCACAGCAGAAACGUUCGCGUCGCGGCCCCUGUCAGAUUCUGGUGAAUCUGCGAAUUCUGCUGU [G17A A23G]: 0.243
GGGGGCCACAGCAGAAGCGUUCACGUCGCGGCACCUGUCAGAUUCUAGUGAAUCUGCGAAUUCUGCUGU [C33A G47A]: 0.925
GGGGGCCACAGCAGUAGCGUUCACGUCGCGGCACCUGUCAGAUUCUGGUGAAUCUGCGAAUUCUGCUGU [A15U C33A]: 0.493
GGUGGCCACAGCAGAAGCGUUCACGUCGCAGCCCCUGUCAGAUUCUGGUGAAUCUGCGAAUUCUGCUGU [G3U G30A]: 0.0662
GGGGGCCACAGCAGAAGCGUUCACGUCGCGUCCCCUGUCAGAGUCUGGUGAAUCUGCGAAUUCUGCUGU [G31U U43G]: 0.454

Report self-cleavage for every entry below.
1. GGGGGCCACAGCAGAAGCGUUCACGUCGCGGCCCCUGUCAGAUUUUGGUGAAUCUGCGGAUUCUGCUGU [C45U A59G]
2. GGGGGCCACAUCAGAAGCAUUCACGUCGCGGCCCCUGUCAGAUUCUGGUGAAUCUGCGAAUUCUGCUGU [G11U G19A]

Response:
1. 0.98
2. 0.115

Report self-cleavage for every entry below.
1. GGGGGCUACAGCAGAAGCGUUCACGUCGCGGCCCCUGUCUGAUUCUGGUGAAUCUGCGAAUUCUGCUGU [C7U A40U]
2. GGGGGCCACAGCAGAAGCGUUCACGUCGCGGCCCCUGUCAGAUUCUGGUGAAUUUGCGAAGUCUGCUGU [C54U U61G]
3. GGGGGCCACAGCAGAAGCGUUGACGUCGCGGACCCUGUCAGAUUCUGGUGAAUCUGCGAAUUCUGCUGU [C22G C32A]
4. GGGGGCCACAGCAGAAGCGUUCACGUCGCGGCCCCUGUCAGAUUCUGGUGAAUCUGGGAAUUCUGCGGU [C57G U67G]
5. GGGGGCCACAGCAGAAGCGUUCACGUCGCGGCCCCUGUGAGAUUCUGGUGAAUCUGCGAUUUCUGCUGU [C39G A60U]
6. GGGGGCCACAACAGAAGCGUUAACGUCGCGGCCCCUGUCAGAUUCUGGUGAAUCUGCGAAUUCUGCUGU [G11A C22A]

Response:
1. 0.683
2. 0.779
3. 0.117
4. 0.489
5. 0.354
6. 0.127

Report self-cleavage for every entry below.
1. GUGGGCCACAGCAGAAGCGUUCACGUCGCGGCCCCUGUGAGAUUCUGGUGAAUCUGCGAAUUCUGCUGU [G2U C39G]
2. GGGGGCCACAGCAGAAGCGUUCACGUCGCGGCCCCUGUCAGAUUCUGGUGAACCUGCGAAUUCUGCUCU [U53C G68C]

Response:
0.045
1.02

Report self-cleavage for every entry below.
1. GGGGGCCACAGCAGUAGCGUUCACGUCGCGGCCCCUGUCAGAUUCUGGUGAAUCUGCAAAUUCUGCUGU [A15U G58A]
2. GGGGGCCACAGCAGACGCGUUCACGUCGCGGCCCCUGUCAGAUUCUGGUGAAUCUGCGAAUUCGGCUGU [A16C U64G]
3. GGGGGCCCCAGCAGAAGCGUUCACGUCGCGGCCCCUGUCAGAUUCUGGUGAAUGUGCGAAUUCUGCUGU [A8C C54G]
4. GGGGGCCACAGCAGAAGCGUUAACGUCGCGGGCCCUGUCAGAUUCUGGUGAAUCUGCGAAUUCUGCUGU [C22A C32G]
5. GGGGGCCACAGCGGAAGCGUUCACGUCGCGGCCCCUGUCAGAUUUUGGUGAAUCUGCGAAUUCUGCUGU [A13G C45U]
6. GGGGGCCACAGCAGAGGCGUUCACGUCGCGGCCCCUGUCAGAUUCUGGUGCAUCUGCGAAUUCUGCUGU [A16G A51C]

Response:
0.754
0.119
0.876
0.182
0.917
0.819
